# ASSAY_EXPLANATION: Clearance in dog at 0.5 mg/kg, iv
# Format: ADME, organism-based, Canis lupus familiaris
# CONDITIONS_USED: in vivo

# SMILES_ENTRY, clearance [mL/min/kg]
data = [
    ("Cc1ccc(-n2nccn2)c(C(=O)N2CCCO[C@H]2Cn2ccc(-c3ccc(F)cn3)n2)c1", 2.65),
]

* * *

# TEST_TARGET: Orexin/Hypocretin receptor type 1 (Homo sapiens)
# Sequence (O43613 whole entry): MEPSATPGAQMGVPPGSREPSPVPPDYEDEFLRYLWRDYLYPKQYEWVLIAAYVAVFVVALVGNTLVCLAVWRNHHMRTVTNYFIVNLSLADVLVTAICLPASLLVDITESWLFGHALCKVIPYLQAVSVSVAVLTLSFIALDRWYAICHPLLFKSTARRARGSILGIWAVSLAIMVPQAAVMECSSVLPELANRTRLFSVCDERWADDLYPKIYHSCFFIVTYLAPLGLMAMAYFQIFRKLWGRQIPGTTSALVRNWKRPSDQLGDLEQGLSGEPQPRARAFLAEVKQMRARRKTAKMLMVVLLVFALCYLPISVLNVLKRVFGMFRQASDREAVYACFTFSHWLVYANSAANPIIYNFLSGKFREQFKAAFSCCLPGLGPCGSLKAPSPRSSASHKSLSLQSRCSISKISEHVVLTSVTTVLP
# ASSAY_EXPLANATION: Antagonist activity at human recombinant OX1R expressed in CHOK1 cells assessed as inhibition of orexin A-induced intracellular Ca2+ release preincubated for 30 mins followed by orexin-A stimulation by Fluo4-AM dye based fluorescence analysis
Item-by-item account of IC50

# SMILES_ENTRY, IC50 (nM)
records = [
    ("Cc1ccc(-n2nccn2)c(C(=O)N2CSC[C@H]2Cn2ccc(-c3ccc(F)cn3)n2)c1", 4.6),
    ("Cc1ccc(-n2nccn2)c(C(=O)N2CCCO[C@H]2Cn2cc(-c3ccc(F)cc3)cn2)c1", 2.21),
    ("Cc1ccc(-n2nccn2)c(C(=O)N2COC[C@H]2Cn2ccc(-c3ccc(F)cn3)n2)c1", 149),
    ("Cc1ccc(-n2nccn2)c(C(=O)N2CCCO[C@H]2Cn2ccc(-c3ccc(F)cn3)n2)c1", 1.05),
    ("Cc1ccc(-n2nccn2)c(C(=O)N2CCO[C@H]2Cn2ccc(-c3ccc(F)cn3)n2)c1", 8.08),
    ("Cc1ccc(-n2nccn2)c(C(=O)N2COCC[C@H]2Cn2ccc(-c3ccc(F)cn3)n2)c1", 3.36),
    ("Cc1ccc(-n2nccn2)c(C(=O)N2CCCO[C@H]2Cn2cc(-c3ccc(F)cn3)nn2)c1", 12.1),
    ("Cc1ccc(-n2nccn2)c(C(=O)N2CCCO[C@H]2Cn2cc(-c3ccc(F)cn3)cn2)c1", 5.39),
    ("Cc1ccc(-n2nccn2)c(C(=O)N2CCCO[C@H]2Cc2noc(-c3ccc(F)cn3)n2)c1", 4.54),
    ("Cc1ccc(-n2nccn2)c(C(=O)N2CCCC[C@H]2Cn2ccc(-c3ccc(F)cn3)n2)c1", 2.27),
    ("Cc1ccc(-n2nccn2)c(C(=O)N2CCCO[C@H]2Cc2cnn(-c3ccc(F)cn3)c2)c1", 3.98),
]
